protocol-text: Blood concentration assay of sorafenib, mice bearing MHCC97-H tumours
Type: in vivo
assay-context: nude, mouse, plasma, oral, 2 mg/kg, 2 h; Subcutaneous MHCC97-H siTPX2 tumour; 2 mg/kg oral
assay-readout: concentration at 2 h (ng/mL)

1) CNC(=O)c1cc(Oc2ccc(NC(=O)Nc3ccc(Cl)c(C(F)(F)F)c3)cc2)ccn1
33.2

====

protocol-text: Sorafenib metabolism/clearance in subcutaneous tumor tissues, LC-MS/MS
Format: in vivo, nude mice
assay-context: nude, mouse, subcutaneous tumor tissue formed by MHCC97-L cells, other: injected directly into the tumor tissue, MHCC97-L subcutaneous tumour tissues, TPX2 overexpression + rifampicin 5 mg/kg oral; read-out: t1/2 values (converted)
assay-readout: half-life (h)

1. CNC(=O)c1cc(Oc2ccc(NC(=O)Nc3ccc(Cl)c(C(F)(F)F)c3)cc2)ccn1 [sorafenib]
11.4

====

protocol-text: Blood concentration assay of sorafenib, mice bearing MHCC97-L tumours
Format: in vivo
assay-context: nude, mouse, plasma, oral, 2 mg/kg, 2 h; Subcutaneous MHCC97-L TPX2 tumour; 2 mg/kg oral
Description: Table notes: After overexpression of TPX2 in MHCC97-L cells, the cells were inoculated with nude mice to form subcutaneous tumour tissue (the volume of tumour tissue was approximately 1 g) and then given 2 mg/kg via oral administration. After overexpression of TPX2 in MHCC97-L cells, the cells were inoculated into nude mice to form subcutaneous tumour tissue and then in situ liver tumour tissue was established. […] Thereafter, blood levels of sorafenib were measured.
assay-readout: concentration at 2 h (ng/mL)

1) CNC(=O)c1cc(Oc2ccc(NC(=O)Nc3ccc(Cl)c(C(F)(F)F)c3)cc2)ccn1
13.9

====

protocol-text: Blood concentration assay of sorafenib, mice bearing MHCC97-L tumours
Assay type: in vivo
assay-context: nude, mouse, plasma, po, 2 mg/kg, 8 h; intrahepatic MHCC97-L TPX2 tumour; 2 mg/kg oral
assay-readout: concentration at 8 h (ng/mL)

1. CNC(=O)c1cc(Oc2ccc(NC(=O)Nc3ccc(Cl)c(C(F)(F)F)c3)cc2)ccn1 [sorafenib]
144

====

protocol-text: Blood concentration assay of sorafenib, mice bearing MHCC97-H tumours
Format: in vivo
assay-context: nude, mouse, plasma, po, 2 mg/kg, 20 h; intrahepatic MHCC97-H Control tumour; 2 mg/kg oral
assay-readout: concentration at 20 h (µg/mL)

1) CNC(=O)c1cc(Oc2ccc(NC(=O)Nc3ccc(Cl)c(C(F)(F)F)c3)cc2)ccn1
0.12

====

protocol-text: Blood concentration assay of sorafenib, mice bearing MHCC97-L tumours
Type: in vivo
assay-context: nude, mouse, plasma, po, 2 mg/kg, 2 h; intrahepatic MHCC97-L Control tumour; 2 mg/kg oral
assay-readout: concentration at 2 h (ng/mL)

1. CNC(=O)c1cc(Oc2ccc(NC(=O)Nc3ccc(Cl)c(C(F)(F)F)c3)cc2)ccn1
17.9

====

protocol-text: Sorafenib metabolism/clearance in LS180 cells
Format: in vitro ADME
assay-context: human, TPX2 overexpression, read-out: t1/2 values (converted)
assay-readout: half-life at 1 μmol/L (h)

1) CNC(=O)c1cc(Oc2ccc(NC(=O)Nc3ccc(Cl)c(C(F)(F)F)c3)cc2)ccn1 [sorafenib]
12

====

protocol-text: Blood concentration assay of sorafenib, mice bearing MHCC97-L tumours
Assay type: in vivo
assay-context: nude, mouse, plasma, oral, 2 mg/kg, 40 h; Subcutaneous MHCC97-L TPX2 tumour; 2 mg/kg oral
assay-readout: concentration at 40 h (ng/mL)

1. CNC(=O)c1cc(Oc2ccc(NC(=O)Nc3ccc(Cl)c(C(F)(F)F)c3)cc2)ccn1
29.6

====

protocol-text: Sorafenib metabolism/clearance in cultured cells, LC-MS/MS
Assay type: in vitro ADME
assay-context: human, MHCC97-H cells, Control, median (95% CI), read-out: t1/2 values (converted)
Description: After incubation with sorafenib was complete, the medium containing sorafenib was discarded and replaced with normal DMEM + FBS for continuous cultures. […] S transition pair was detected using LC–MS/MS: (1) the parent ion was 465 Da and (2) the product ion was 252 Da. All statistical analyses in the presence work were performed using the GraphPad 8.0 (GraphPad Software Corporation, Armonk, NY, USA). […] An ANOVA was used to examine whether any difference between groups could be detected. […]
assay-readout: half-life at 1 μmol/L (min)

1) CNC(=O)c1cc(Oc2ccc(NC(=O)Nc3ccc(Cl)c(C(F)(F)F)c3)cc2)ccn1
933

====

protocol-text: Blood concentration assay of sorafenib, mice bearing MHCC97-H tumours
Type: in vivo
assay-context: nude, mouse, plasma, oral, 2 mg/kg, 8 h; Subcutaneous MHCC97-H siTPX2 tumour; 2 mg/kg oral
assay-readout: concentration at 8 h

1) CNC(=O)c1cc(Oc2ccc(NC(=O)Nc3ccc(Cl)c(C(F)(F)F)c3)cc2)ccn1
170 ng/mL

====

protocol-text: Blood concentration assay of sorafenib, mice bearing MHCC97-H tumours
Assay type: in vivo
assay-context: nude, mouse, plasma, po, 2 mg/kg, 8 h; intrahepatic MHCC97-H siTPX2 tumour; 2 mg/kg oral
assay-readout: concentration at 8 h

1) CNC(=O)c1cc(Oc2ccc(NC(=O)Nc3ccc(Cl)c(C(F)(F)F)c3)cc2)ccn1
152 ng/mL

====

protocol-text: Sorafenib metabolism/clearance in cultured cells, LC-MS/MS
Format: in vitro ADME
assay-context: human, HepG2 cells, siTPX2, read-out: t1/2 values (converted)
assay-readout: half-life at 1 μmol/L

1) CNC(=O)c1cc(Oc2ccc(NC(=O)Nc3ccc(Cl)c(C(F)(F)F)c3)cc2)ccn1 [sorafenib]
> 24 h

====

protocol-text: Blood concentration assay of sorafenib, mice bearing MHCC97-L tumours
Type: in vivo
assay-context: nude, mouse, plasma, po, 2 mg/kg, 8 h; intrahepatic MHCC97-L Control tumour; 2 mg/kg oral
assay-readout: concentration at 8 h (ng/mL)

1. CNC(=O)c1cc(Oc2ccc(NC(=O)Nc3ccc(Cl)c(C(F)(F)F)c3)cc2)ccn1 [sorafenib]
138

====

protocol-text: Sorafenib metabolism/clearance in subcutaneous tumor tissues, LC-MS/MS
Type: in vivo, nude mice
assay-context: nude, mouse, subcutaneous tumor tissue formed by HepG2 cells, siTPX2, median (95% CI), read-out: t1/2 values (converted)
assay-readout: half-life (h)

1) CNC(=O)c1cc(Oc2ccc(NC(=O)Nc3ccc(Cl)c(C(F)(F)F)c3)cc2)ccn1
42.2

====

protocol-text: Sorafenib metabolism/clearance in cultured cells, LC-MS/MS
Type: in vitro ADME
assay-context: human, HepG2 cells, TPX2 overexpression, median (95% CI), read-out: t1/2 values (converted)
assay-readout: half-life at 1 μmol/L (min)

1. CNC(=O)c1cc(Oc2ccc(NC(=O)Nc3ccc(Cl)c(C(F)(F)F)c3)cc2)ccn1
822

====

protocol-text: Blood concentration assay of sorafenib, mice bearing MHCC97-H tumours
Assay type: in vivo
assay-context: nude, mouse, plasma, po, 2 mg/kg, 40 h; intrahepatic MHCC97-H Control tumour; 2 mg/kg oral
assay-readout: concentration at 40 h

1. CNC(=O)c1cc(Oc2ccc(NC(=O)Nc3ccc(Cl)c(C(F)(F)F)c3)cc2)ccn1
46.8 ng/mL

====

protocol-text: Blood concentration assay of sorafenib, mice bearing MHCC97-L tumours
Type: in vivo
assay-context: nude, mouse, plasma, po, 2 mg/kg, 20 h; intrahepatic MHCC97-L Control tumour; 2 mg/kg oral
assay-readout: concentration at 20 h

1) CNC(=O)c1cc(Oc2ccc(NC(=O)Nc3ccc(Cl)c(C(F)(F)F)c3)cc2)ccn1 [sorafenib]
117 ng/mL

====

protocol-text: Blood concentration assay of sorafenib, mice bearing MHCC97-H tumours
Format: in vivo
assay-context: nude, mouse, plasma, oral, 2 mg/kg, 20 h; Subcutaneous MHCC97-H siTPX2 tumour; 2 mg/kg oral
Procedure: Table notes: After knockdown of TPX2 in MHCC97-H cells, the cells were inoculated with nude mice to form subcutaneous tumour tissue (the volume of tumour tissue was approximately 1 g) and then given 2 mg/kg via oral administration. After knockdown TPX2 in MHCC97-H cells, the cells were inoculated into nude mice to form subcutaneous tumour tissue and then in situ liver tumour tissue was established. […] Thereafter, blood levels of sorafenib were measured.
assay-readout: concentration at 20 h (ng/mL)

1. CNC(=O)c1cc(Oc2ccc(NC(=O)Nc3ccc(Cl)c(C(F)(F)F)c3)cc2)ccn1
142

====

protocol-text: Sorafenib metabolism/clearance in cultured cells, LC-MS/MS
Assay type: in vitro ADME
assay-context: human, HepG2 cells, Control, median (95% CI), read-out: t1/2 values (converted)
assay-readout: half-life at 1 μmol/L (h)

1) CNC(=O)c1cc(Oc2ccc(NC(=O)Nc3ccc(Cl)c(C(F)(F)F)c3)cc2)ccn1
18.9

====

protocol-text: Blood concentration assay of sorafenib, mice bearing MHCC97-H tumours
Format: in vivo
assay-context: nude, mouse, plasma, oral, 2 mg/kg, 8 h; Subcutaneous MHCC97-H Control tumour; 2 mg/kg oral
assay-readout: concentration at 8 h (ng/mL)

1. CNC(=O)c1cc(Oc2ccc(NC(=O)Nc3ccc(Cl)c(C(F)(F)F)c3)cc2)ccn1
152
